Recorded cell viability by entry
# System: SEM cells
# protocol: cell viability relative to DMSO control; higher = less cytotoxic
# experimental-parameters: HPLM + 10% dialyzed FBS; 48 h; 0.19 µM
measured-parameter: cell viability (%)

[[record]]
compound = "Cc1ccc(C(C)(O)c2nc3ccccc3s2)c(C)c1 (configuration not stated)"
target_or_test_system = "SEM cells"
readout_number = 114

[[record]]
compound = "Nc1ccccc1NC(=O)c1ccc(CNc2nccc(-c3cccnc3)n2)cc1"
target_or_test_system = "SEM cells"
readout_number = 110

[[record]]
compound = "CC1(C)[C@@H](O[C@H]2O[C@H](C(=O)O)[C@@H](O)[C@H](O)[C@H]2O[C@@H]2O[C@H](C(=O)O)[C@@H](O)[C@H](O)[C@H]2O)CC[C@]2(C)[C@H]3C(=O)C=C4[C@@H]5C[C@@](C)(C(=O)O)CC[C@]5(C)CC[C@@]4(C)[C@]3(C)CC[C@@H]12"
target_or_test_system = "SEM cells"
readout_number = 114

[[record]]
compound = "O=C1\\C=C(/OC2=C1C=CC=C2C3=CC=CC=C3)N4CCOCC4"
target_or_test_system = "SEM cells"
readout_number = 89.3

[[record]]
compound = "COc1cc2nccc(Oc3ccc(NC(=O)C4(C(=O)Nc5ccc(F)cc5)CC4)cc3)c2cc1OC"
target_or_test_system = "SEM cells"
readout_number = 48.7

[[record]]
compound = "C#Cc1cccc(Nc2ncnc3cc(OCCOC)c(OCCO)cc23)c1"
target_or_test_system = "SEM cells"
readout_number = 123

[[record]]
compound = "CNC(=O)c1cccc(-c2ccc3c(N4CCOC[C@@H]4C)nc(N4CCOC[C@@H]4C)nc3n2)c1"
target_or_test_system = "SEM cells"
readout_number = 63.7


----------
# Tested on: SEM cells
# protocol: cell viability relative to DMSO control; higher = less cytotoxic
# experimental-parameters: RPMI 5 mM glucose + 10% dialyzed FBS; 48 h; 0.569 µM
measured-parameter: cell viability (%)

[[record]]
chem_smiles = "N[C@@H](C(=O)N[C@H]1[C@H]2SC\\C(=C(/N2C1=O)C(O)=O)Cl)C3=CC=CC=C3"
target_or_test_system = "SEM cells"
measured_parameter = "cell viability"
readout_number = 147

[[record]]
chem_smiles = "CN(C)Cc1ccc(-c2nc3cccc4c3n2CCNC4=O)cc1"
target_or_test_system = "SEM cells"
measured_parameter = "cell viability"
readout_number = 93

[[record]]
chem_smiles = "Clc1cccc(-c2nnnn2Cc2cccnc2)c1Cl"
target_or_test_system = "SEM cells"
measured_parameter = "cell viability"
readout_number = 102

[[record]]
chem_smiles = "C[C@@H]1C[C@H]2[C@@H]3\\C=C(C)/C4=C/C5=C(C[C@]4(C)[C@H]3[C@@H](O)C[C@]2(C)[C@@]1(O)C(=O)COC(C)=O)C=N[N]5C6=CC=CC=C6"
target_or_test_system = "SEM cells"
measured_parameter = "cell viability"
readout_number = 52.8

[[record]]
chem_smiles = "CC(C)(C)OC(=O)CN(Cc1ccc(Cl)cc1)Cc1ccc([N+](=O)[O-])s1"
target_or_test_system = "SEM cells"
measured_parameter = "cell viability"
readout_number = 97.3

[[record]]
chem_smiles = "O=C1c2c(O)cccc2[C@H]([C@@H]2O[C@H](CO)[C@@H](O)[C@H](O)[C@H]2O)c2cc(CO)cc(O)c21"
target_or_test_system = "SEM cells"
measured_parameter = "cell viability"
readout_number = 114

[[record]]
chem_smiles = "C[C@]\\1(CCS\\C(=N1)N)C2=CC(=C(F)C=C2F)C3=CN=CN=C3"
target_or_test_system = "SEM cells"
measured_parameter = "cell viability"
readout_number = 101

[[record]]
chem_smiles = "COc1cc2nccc(Oc3ccc(NC(=O)Nc4ccc(F)cc4F)c(F)c3)c2cc1OC"
target_or_test_system = "SEM cells"
measured_parameter = "cell viability"
readout_number = 34.1

[[record]]
chem_smiles = "Nc1ccccc1NC(=O)c1ccc(CNc2nccc(-c3cccnc3)n2)cc1"
target_or_test_system = "SEM cells"
measured_parameter = "cell viability"
readout_number = 62.8

